- Test system: human FcRn (probe in the FACS analysis of bacterially displayed Fc variants) (human, UniProt P55899 24-297; P61769 21-119, limits assumed)
- Sequence (P55899 24-297 limits assumed, change not shown, chain 1 of 2): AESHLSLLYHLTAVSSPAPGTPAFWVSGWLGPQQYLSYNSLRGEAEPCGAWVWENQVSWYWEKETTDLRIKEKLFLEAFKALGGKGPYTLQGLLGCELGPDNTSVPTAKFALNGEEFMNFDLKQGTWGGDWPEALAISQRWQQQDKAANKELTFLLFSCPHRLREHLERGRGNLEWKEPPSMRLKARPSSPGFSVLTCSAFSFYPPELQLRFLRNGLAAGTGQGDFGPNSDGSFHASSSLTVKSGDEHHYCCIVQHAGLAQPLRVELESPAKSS
- Sequence (P61769 21-119 limits assumed, change not shown, chain 2 of 2): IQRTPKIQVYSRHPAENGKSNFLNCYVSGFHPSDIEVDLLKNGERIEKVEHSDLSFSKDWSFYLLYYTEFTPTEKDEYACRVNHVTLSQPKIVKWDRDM
- Assay remarks: FACS of bacterially displayed Fc variants with human FcRn, pH 6.0
Observation type: binding result

Fc variant L309G/Q311Y/M428L (bacterial display) (other, also called Q311Y in M428L and L309G Fc variant) DKTHTCPPCPAPELLGGPSVFLFPPKPKDTLMISRTPEVTCVVVDVSHEDPEVKFNWYVDGVEVHNAKTKPREEQYNSTYRVVSVLTVGHYDWLNGKEYKCKVSNKALPAPIEKTISKAKGQPREPQVYTLPPSRDELTKNQVSLTCLVKGFYPSDIAVEWESNGQPENNYKTTPPVLDSDGSFFLYSKLTVDKSRWQQGNVFSCSVLHEALHNHYTQKSLSLSPGK	binds
Fc variant L309G/Q311W/M428L (bacterial display) (other, also called Q311W in M428L and L309G Fc variant) DKTHTCPPCPAPELLGGPSVFLFPPKPKDTLMISRTPEVTCVVVDVSHEDPEVKFNWYVDGVEVHNAKTKPREEQYNSTYRVVSVLTVGHWDWLNGKEYKCKVSNKALPAPIEKTISKAKGQPREPQVYTLPPSRDELTKNQVSLTCLVKGFYPSDIAVEWESNGQPENNYKTTPPVLDSDGSFFLYSKLTVDKSRWQQGNVFSCSVLHEALHNHYTQKSLSLSPGK	binds
Fc variant L309G/Q311A/M428L (bacterial display) (other, also called Q311A in M428L and L309G Fc variant) DKTHTCPPCPAPELLGGPSVFLFPPKPKDTLMISRTPEVTCVVVDVSHEDPEVKFNWYVDGVEVHNAKTKPREEQYNSTYRVVSVLTVGHADWLNGKEYKCKVSNKALPAPIEKTISKAKGQPREPQVYTLPPSRDELTKNQVSLTCLVKGFYPSDIAVEWESNGQPENNYKTTPPVLDSDGSFFLYSKLTVDKSRWQQGNVFSCSVLHEALHNHYTQKSLSLSPGK	binds

Reference source for all entries: patent US20230072197A1
